Biological target: S. aureus Topoisomerase IV (Staphylococcus aureus, UniProt P0C1S7+P0C1U9)
Construct: purchased Inspiralis, UK
Sequence (P0C1S7 whole entry): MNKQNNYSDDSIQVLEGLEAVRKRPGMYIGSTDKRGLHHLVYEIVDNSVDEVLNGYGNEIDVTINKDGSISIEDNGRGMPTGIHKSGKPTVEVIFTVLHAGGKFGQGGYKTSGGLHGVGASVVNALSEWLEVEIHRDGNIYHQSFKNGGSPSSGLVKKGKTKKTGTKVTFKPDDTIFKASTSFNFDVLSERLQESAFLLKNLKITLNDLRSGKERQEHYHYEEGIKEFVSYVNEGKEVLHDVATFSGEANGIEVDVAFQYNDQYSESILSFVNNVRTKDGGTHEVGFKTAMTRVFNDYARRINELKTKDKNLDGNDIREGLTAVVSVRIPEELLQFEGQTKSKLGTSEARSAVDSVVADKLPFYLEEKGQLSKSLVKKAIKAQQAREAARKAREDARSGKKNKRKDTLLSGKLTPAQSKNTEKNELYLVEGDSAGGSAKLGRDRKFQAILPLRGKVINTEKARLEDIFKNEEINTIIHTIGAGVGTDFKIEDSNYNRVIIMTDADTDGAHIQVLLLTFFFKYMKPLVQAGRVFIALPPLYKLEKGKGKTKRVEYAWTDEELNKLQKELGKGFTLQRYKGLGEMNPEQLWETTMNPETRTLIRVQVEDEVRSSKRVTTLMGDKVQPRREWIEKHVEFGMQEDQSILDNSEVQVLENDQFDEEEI
Sequence (P0C1U9 whole entry): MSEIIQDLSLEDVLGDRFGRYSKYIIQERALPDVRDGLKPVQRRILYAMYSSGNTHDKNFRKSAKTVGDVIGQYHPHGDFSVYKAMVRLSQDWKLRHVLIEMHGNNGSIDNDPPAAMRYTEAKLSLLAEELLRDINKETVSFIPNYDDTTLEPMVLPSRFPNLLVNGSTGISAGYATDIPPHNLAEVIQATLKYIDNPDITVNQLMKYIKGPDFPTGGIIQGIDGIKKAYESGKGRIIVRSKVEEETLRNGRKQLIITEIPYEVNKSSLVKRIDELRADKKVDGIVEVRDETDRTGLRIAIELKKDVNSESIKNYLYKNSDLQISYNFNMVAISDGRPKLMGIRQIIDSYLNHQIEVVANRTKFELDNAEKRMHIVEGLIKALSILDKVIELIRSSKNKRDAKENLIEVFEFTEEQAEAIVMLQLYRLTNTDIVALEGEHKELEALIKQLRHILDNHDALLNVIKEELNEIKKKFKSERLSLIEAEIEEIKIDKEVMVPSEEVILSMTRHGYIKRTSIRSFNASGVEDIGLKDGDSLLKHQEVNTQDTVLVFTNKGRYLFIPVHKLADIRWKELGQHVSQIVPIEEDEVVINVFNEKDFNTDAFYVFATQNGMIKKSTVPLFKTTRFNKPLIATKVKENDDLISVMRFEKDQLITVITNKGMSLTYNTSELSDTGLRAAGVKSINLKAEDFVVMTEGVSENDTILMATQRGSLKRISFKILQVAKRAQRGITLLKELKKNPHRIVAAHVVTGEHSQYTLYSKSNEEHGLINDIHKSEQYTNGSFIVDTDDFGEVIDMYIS
Experiment: Topoisomerase IV decatenation assay (S. aureus)
Assay type: biochemical
Conditions: S. aureus; concentration-response curve, eight half-log concentrations 0.1 to 300 μM; read-out: IC50 Topo IV
pIC50: −log10 of the molar value. Where a name gives a salt, the structure may show the parent alone.
Quick rule: pIC50 of at least 6 means Yes, below that means No.

The following molecules have reported results that may help.
molecule	assigned class
O=c1oc2ccccc2c2[nH]c(C(O)CN3CCN(c4nccc5ccc(F)cc45)CC3)nc12 (stereo not shown) [Compound 152, hydrochloride]	Yes
O=c1cc(NCC(O)CN2CCN(c3nccc4ncccc34)CC2)c2cc(F)ccc2o1 (stereo not shown)	Yes
O=c1nc(NCC(O)CN2CCN(c3nccc4ncc(F)cc34)CC2)c2cc(F)ccc2o1 (stereo not shown)	Yes
O=c1nc(NCC(O)CN2CCN(c3nccc4ccc(F)cc34)CC2)c2cc(F)ccc2o1 (stereo not shown)	Yes

In the following, a different molecule is considered.
Does pIC50 meet or surpass 6 for O=c1nc(NCC(O)CN2CCN(c3nc(F)cc4ccc(OC(F)(F)F)cc34)CC2)c2cc(F)ccc2o1 (stereo not shown) ?
No
